species: Homo sapiens; test: Selectivity ratio of Ki for human adenosine A1 receptor to Ki for human adenosine A2A receptor
We begin with a simple list: items and their reported Ratio Ki.
Reported Metric: Ratio Ki

>  <Compound Structure String>
CC(=O)Nc1cc(-c2cccc(N(C)C)n2)nc(-n2nc(C)cc2C)n1

>  <Reported Metric>
Ratio Ki

>  <Numeric Readout>
133

$$$$
>  <Compound Structure String>
CC(=O)Nc1cc(-c2cccc(N3CCCC3)n2)nc(-n2nc(C)cc2C)n1

>  <Reported Metric>
Ratio Ki

>  <Numeric Readout>
28

$$$$
>  <Compound Structure String>
CC(=O)Nc1cc(-c2cccnc2)nc(-n2nc(C)cc2C)n1

>  <Reported Metric>
Ratio Ki

>  <Numeric Readout>
18

$$$$
>  <Compound Structure String>
CCOC(=O)Nc1cc(-c2cncc(OC)c2)nc(-n2nc(C)cc2C)n1

>  <Reported Metric>
Ratio Ki

>  <Numeric Readout>
79

$$$$
>  <Compound Structure String>
CC(=O)Nc1cc(-c2cccc(N3CCN(C)CC3)n2)nc(-n2nc(C)cc2C)n1

>  <Reported Metric>
Ratio Ki

>  <Numeric Readout>
175

$$$$
>  <Compound Structure String>
CC(=O)Nc1cc(-c2cc(N3CCOCC3)ccn2)nc(-n2nc(C)cc2C)n1

>  <Reported Metric>
Ratio Ki

>  <Numeric Readout>
53

$$$$
>  <Compound Structure String>
CC(=O)Nc1cc(-c2cccc(N3CCCOCC3)n2)nc(-n2nc(C)cc2C)n1

>  <Reported Metric>
Ratio Ki

>  <Numeric Readout>
121

$$$$
>  <Compound Structure String>
CC(=O)Nc1cc(-c2cncc(O)c2)nc(-n2nc(C)cc2C)n1

>  <Reported Metric>
Ratio Ki

>  <Numeric Readout>
67

$$$$
>  <Compound Structure String>
CC(=O)Nc1cc(-c2ccccc2)nc(-n2nc(C)cc2C)n1

>  <Reported Metric>
Ratio Ki

>  <Numeric Readout>
3.3

$$$$
>  <Compound Structure String>
CC(=O)Nc1cc(-c2cccc(N)n2)nc(-n2nc(C)cc2C)n1

>  <Reported Metric>
Ratio Ki

>  <Numeric Readout>
57

$$$$

----------
Overview of recorded pIC50 for various compounds
target: Voltage-gated inwardly rectifying potassium channel KCNH2 (Homo sapiens)
Sequence (Q12809 whole entry): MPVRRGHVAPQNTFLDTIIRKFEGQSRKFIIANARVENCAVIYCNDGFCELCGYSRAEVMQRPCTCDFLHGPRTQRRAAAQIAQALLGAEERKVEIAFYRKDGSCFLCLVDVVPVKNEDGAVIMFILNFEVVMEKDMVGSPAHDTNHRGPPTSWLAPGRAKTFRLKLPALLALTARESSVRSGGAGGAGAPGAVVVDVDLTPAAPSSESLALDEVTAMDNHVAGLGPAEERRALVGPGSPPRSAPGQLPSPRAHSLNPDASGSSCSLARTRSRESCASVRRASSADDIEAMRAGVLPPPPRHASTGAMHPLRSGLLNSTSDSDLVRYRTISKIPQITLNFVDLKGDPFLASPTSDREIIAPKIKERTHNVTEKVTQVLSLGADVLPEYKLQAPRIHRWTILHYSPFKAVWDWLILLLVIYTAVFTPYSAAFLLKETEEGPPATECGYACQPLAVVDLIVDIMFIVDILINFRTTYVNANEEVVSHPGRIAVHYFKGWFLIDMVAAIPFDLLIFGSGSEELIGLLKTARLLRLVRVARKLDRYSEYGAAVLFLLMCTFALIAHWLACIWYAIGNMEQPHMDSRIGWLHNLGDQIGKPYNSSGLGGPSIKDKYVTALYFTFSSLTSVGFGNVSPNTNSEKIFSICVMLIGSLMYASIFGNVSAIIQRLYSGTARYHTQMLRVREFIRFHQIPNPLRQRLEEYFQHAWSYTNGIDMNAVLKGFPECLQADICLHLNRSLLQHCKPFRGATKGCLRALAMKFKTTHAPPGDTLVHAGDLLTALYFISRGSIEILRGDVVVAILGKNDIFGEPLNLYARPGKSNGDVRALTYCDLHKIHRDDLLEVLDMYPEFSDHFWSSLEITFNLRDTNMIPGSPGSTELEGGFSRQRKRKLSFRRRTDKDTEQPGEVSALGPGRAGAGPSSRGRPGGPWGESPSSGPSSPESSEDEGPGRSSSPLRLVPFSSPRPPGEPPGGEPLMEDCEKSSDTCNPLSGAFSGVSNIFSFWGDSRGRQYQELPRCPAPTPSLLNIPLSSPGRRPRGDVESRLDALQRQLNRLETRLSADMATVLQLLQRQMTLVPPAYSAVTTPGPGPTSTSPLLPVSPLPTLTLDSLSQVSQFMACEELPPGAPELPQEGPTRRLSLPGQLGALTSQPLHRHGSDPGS
pIC50: −log10 of the molar value.
Reported Metric: pIC50

>  <Compound Structure String>
CC(=O)Nc1cc(-c2cccc(N3CCN(C)CC3)n2)nc(-n2nc(C)cc2C)n1

>  <Numeric Readout>
6.27

$$$$
>  <Compound Structure String>
COc1cncc(-c2cc(NC(C)=O)nc(-n3nc(C)cc3C)n2)c1

>  <Numeric Readout>
4.62

$$$$

----------
biological target: Adenosine receptor A2a (Rattus norvegicus, UniProt P30543)
Sequence (P30543 whole entry): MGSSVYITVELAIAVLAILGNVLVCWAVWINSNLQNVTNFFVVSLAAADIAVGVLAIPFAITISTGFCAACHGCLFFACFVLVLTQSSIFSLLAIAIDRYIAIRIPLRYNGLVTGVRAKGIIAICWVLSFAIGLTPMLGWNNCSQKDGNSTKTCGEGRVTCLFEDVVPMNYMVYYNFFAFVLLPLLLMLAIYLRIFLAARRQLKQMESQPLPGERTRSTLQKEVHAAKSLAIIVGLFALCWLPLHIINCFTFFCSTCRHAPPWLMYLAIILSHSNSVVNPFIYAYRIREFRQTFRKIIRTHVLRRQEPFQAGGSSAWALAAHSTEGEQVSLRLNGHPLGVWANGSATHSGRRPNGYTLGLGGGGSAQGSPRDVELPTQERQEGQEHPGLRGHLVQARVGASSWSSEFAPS
Listed here are molecules together with their documented Ki.

>  <Compound Structure String>
CCOC(=O)Nc1cc(-c2cncc(OC)c2)nc(-n2nc(C)cc2C)n1

>  <Tested Target>
Adenosine receptor A2a (Rattus norvegicus, UniProt P30543)

>  <Ki [nM]>
82

$$$$
>  <Compound Structure String>
COc1cncc(-c2cc(NC(C)=O)nc(-n3nc(C)cc3C)n2)c1

>  <Tested Target>
Adenosine receptor A2a (Rattus norvegicus, UniProt P30543)

>  <Ki [nM]>
62

$$$$
>  <Compound Structure String>
CC(=O)Nc1cc(-c2cccc(N(C)C)n2)nc(-n2nc(C)cc2C)n1

>  <Tested Target>
Adenosine receptor A2a (Rattus norvegicus, UniProt P30543)

>  <Ki [nM]>
20

$$$$
>  <Compound Structure String>
COC1CN(c2cccc(-c3cc(NC(C)=O)nc(-n4nc(C)cc4C)n3)n2)C1

>  <Tested Target>
Adenosine receptor A2a (Rattus norvegicus, UniProt P30543)

>  <Ki [nM]>
1.5

$$$$
>  <Compound Structure String>
COCCN(C)c1cccc(-c2cc(NC(C)=O)nc(-n3nc(C)cc3C)n2)n1

>  <Tested Target>
Adenosine receptor A2a (Rattus norvegicus, UniProt P30543)

>  <Ki [nM]>
14

$$$$
>  <Compound Structure String>
COc1cccc(-c2cc(NC(C)=O)nc(-n3nc(C)cc3C)n2)c1F

>  <Tested Target>
Adenosine receptor A2a (Rattus norvegicus, UniProt P30543)

>  <Ki [nM]>
12

$$$$
>  <Compound Structure String>
COc1cc(OC)cc(-c2cc(NC(C)=O)nc(-n3nc(C)cc3C)n2)c1

>  <Tested Target>
Adenosine receptor A2a (Rattus norvegicus, UniProt P30543)

>  <Ki [nM]>
3

$$$$
>  <Compound Structure String>
CC(=O)Nc1cc(-c2cccc(N3CCN(C)CC3)n2)nc(-n2nc(C)cc2C)n1

>  <Tested Target>
Adenosine receptor A2a (Rattus norvegicus, UniProt P30543)

>  <Ki [nM]>
7

$$$$
>  <Compound Structure String>
COc1cncc(-c2cc(NC(=O)CN3CCOCC3)nc(-n3nc(C)cc3C)n2)c1

>  <Tested Target>
Adenosine receptor A2a (Rattus norvegicus, UniProt P30543)

>  <Ki [nM]>
30

$$$$
>  <Compound Structure String>
CC(=O)Nc1cc(-c2cccc(N3CCOCC3)n2)nc(-n2nc(C)cc2C)n1

>  <Tested Target>
Adenosine receptor A2a (Rattus norvegicus, UniProt P30543)

>  <Ki [nM]>
10

$$$$
>  <Compound Structure String>
CCC(=O)Nc1cc(-c2cncc(OC)c2)nc(-n2nc(C)cc2C)n1

>  <Tested Target>
Adenosine receptor A2a (Rattus norvegicus, UniProt P30543)

>  <Ki [nM]>
21

$$$$
